Source: patent US6432922B1

- Target: Human rt-PA (Activase) (Homo sapiens, UniProt P00750)
- Sequence (P00750 36-562): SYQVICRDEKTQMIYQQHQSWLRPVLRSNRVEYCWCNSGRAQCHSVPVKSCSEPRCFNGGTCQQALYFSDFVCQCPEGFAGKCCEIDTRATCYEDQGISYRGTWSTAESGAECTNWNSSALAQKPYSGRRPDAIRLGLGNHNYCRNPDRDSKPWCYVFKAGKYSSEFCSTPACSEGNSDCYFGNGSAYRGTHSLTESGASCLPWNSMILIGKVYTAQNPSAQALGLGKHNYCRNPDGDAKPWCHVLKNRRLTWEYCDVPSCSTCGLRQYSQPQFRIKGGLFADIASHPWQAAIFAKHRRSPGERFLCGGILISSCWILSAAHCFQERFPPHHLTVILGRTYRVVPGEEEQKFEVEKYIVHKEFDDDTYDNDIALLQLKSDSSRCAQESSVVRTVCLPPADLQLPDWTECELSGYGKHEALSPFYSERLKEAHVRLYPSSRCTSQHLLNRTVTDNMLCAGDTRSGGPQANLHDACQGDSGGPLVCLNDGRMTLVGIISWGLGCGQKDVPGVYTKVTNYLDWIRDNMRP
- Method Summary: Recombinant tissue plasminogen activator (rt-PA) chromogenic assay
- Condition Summary: 30 minute preincubation, HBSA buffer; read-out: tPA IC50
pIC50: −log10 of the molar value. Non-standard residues stand in square brackets, D forms with d. Residues, ends and D or L forms follow the SMILES beside them. *: point of attachment. Isovaleryl = CC(C)CC(=O)*; dDap = NC[C@@H](N)C(=O)O; Cbz = O=C(OCc1ccccc1)*
Measurement Type: pIC50

query: Checklist item: pIC50 tested on Human rt-PA (Activase) (Homo sapiens, UniProt P00750), entry C[C@H](NC(=O)[C@@H](CO)NC(=O)Oc1ccccc1)C(=O)N[C@H](C=O)CCCNC(=N)N , value?
result: < 5.60

query: Next compound: CC(C)CC(=O)N[C@H](CO)C(=O)N[C@@H](C)C(=O)N[C@H](C=O)CCCNC(=N)N [Compound 39, isovaleryl-D-seryl-alanyl-argininal] (Isovaleryl-[dS]-Ala-Arg-aldehyde)
result: < 5.60

query: Next compound: C[C@H](NC(=O)[C@@H](CNC(=O)OCc1ccccc1)NC(=O)OCc1ccccc1)C(=O)N[C@H](C=O)CCCNC(=N)N [Compound 42] (Cbz-[dDap](Cbz)-Ala-Arg-aldehyde)
result: < 5.60

query: Next compound: CC[C@H](NC(=O)[C@@H](CO)NC(=O)OCc1ccccc1)C(=O)N[C@H](C=O)CCCNC(=N)N
result: < 5.60

query: Next compound: CSC[C@H](NC(=O)[C@@H](CO)NC(=O)OCc1ccccc1)C(=O)N[C@H](C=O)CCCNC(=N)N [Compound 15] (Cbz-[dS]-Cys(Me)-Arg-aldehyde)
result: < 5.60

* * *

- Target: Urokinase (Abbokinase) (Homo sapiens, UniProt P00749)
- Method Summary: Urokinase chromogenic substrate (S-2444) IC50 assay
Non-standard residues stand in square brackets, D forms with d. Residues, ends and D or L forms follow the SMILES beside them. *: point of attachment. d(aThr) = C[C@@H](O)[C@@H](N)C(=O)O; AllylGly = C=CC[C@H](N)C(=O)O; d(hSer) = N[C@H](CCO)C(=O)O; Cbz = O=C(OCc1ccccc1)*; Moc = COC(=O)*
Measurement Type: IC50

query: Report IC50 for C[C@H](NC(=O)[C@H](CO)NC(=O)OCc1ccccc1)C(=O)N[C@H](C=O)CCCNC(=N)N [Compound 23, benzyloxycarbonyl-seryl-alanyl-argininal] (Cbz-Ser-Ala-Arg-aldehyde) please.
result: 250 to 2500 nM

query: Next compound: N=C(N)NCCC[C@@H](C=O)NC(=O)[C@@H]1CCCCN1C(=O)[C@@H](CO)NC(=O)OCc1ccccc1
result: 100 to 250 nM

query: Next compound: CC1CCC(C(C)C)C(OC(=O)N[C@H](CO)C(=O)N[C@@H](C)C(=O)N[C@H](C=O)CCCNC(=N)N)C1 (single isomer, unassigned; (+))
result: < 100 nM

query: Next compound: C[C@H](NC(=O)[C@@H](CO)NS(=O)(=O)CCCc1ccccc1)C(=O)N[C@H](C=O)CCCNC(=N)N
result: < 100 nM

query: Next compound: C[C@H](NC(=O)[C@H](NC(=O)OCc1ccccc1)[C@@H](C)O)C(=O)N[C@H](C=O)CCCNC(=N)N [Compound 19] (Cbz-[d(aThr)]-Ala-Arg-aldehyde)
result: < 100 nM

query: Next compound: N=C(N)NCCC[C@@H](C=O)NC(=O)[C@@H]1CCCN1C(=O)[C@@H](CCO)NC(=O)OCc1ccccc1 [Compound 27] (Cbz-[d(hSer)]-Pro-Arg-aldehyde)
result: 100 to 250 nM

query: Next compound: N=C(N)NCCC[C@@H](C=O)NC(=O)[C@H](CO)NC(=O)[C@@H](CO)NC(=O)OCc1ccccc1 [Compound 45] (Cbz-[dS]-Ser-Arg-aldehyde)
result: 100 to 250 nM

query: Next compound: C[C@H](NC(=O)[C@@H](CO)NC(=O)OCc1ccccc1)C(=O)N[C@H](C=O)CCCNC(=N)N [Compound 2] (Cbz-[dS]-Ala-Arg-aldehyde)
result: < 100 nM

query: Next compound: C[C@H](NC(=O)[C@@H](CO)NC(=O)Oc1ccc2ccccc2c1)C(=O)N[C@H](C=O)CCCNC(=N)N
result: < 100 nM

query: Next compound: COC(=O)N[C@H](CO)C(=O)N[C@@H](C)C(=O)N[C@H](C=O)CCCNC(=N)N [Compound 8] (Moc-[dS]-Ala-Arg-aldehyde)
result: < 100 nM

query: Next compound: CC(C)OC(=O)N[C@H](CO)C(=O)N[C@@H](C)C(=O)N[C@H](C=O)CCCNC(=N)N
result: < 100 nM

query: Next compound: C=CC[C@H](NC(=O)[C@@H](CO)NC(=O)OCc1ccccc1)C(=O)N[C@H](C=O)CCCNC(=N)N [Compound 52] (Cbz-[dS]-[AllylGly]-Arg-aldehyde)
result: 100 to 250 nM
